These entries and their values trace back to patent US20200230168.

binding signal listing for selected binders.
# experimental.target: THOC4 (ALYREF) (UniProt Q86V81 Q86V81:2-257)
# assay.text: SPR
Please state the number and follow it with the unit.

Known binding signal results, listed for orientation:
UAAGCUGUUCUAUGUGUU (ssRNA, 2'-OMe all, full PS) [DKLS463500 (SEQ 23)]
0.32 normalized Rmax
GUGCAUGGAAUCACGG (ssRNA, 2'-OMe all, full PS) [Open_A 3' truncation 16 nt]
0.29 normalized Rmax
GGCACGUCCGCCAGUCAUGU (ssRNA, 2'-OMe all, full PS) [DKLS656105 (SEQ 56)]
0.23 normalized Rmax

Please report the measured binding signal for AGGCAGCAGUACGA (ssRNA, 2'-OMe all, full PS) [LSA_ATG both-end truncation 14 nt]
1.02 normalized Rmax

Please report the measured binding signal for CAGAGGCAGCAGUACGACG (ssRNA, 2'-OMe all, full PS) [LSA_ATG 3' truncation 19 nt]
0.92 normalized Rmax

Please report the measured binding signal for UCCUGGAUCCUUCACCAAUG (ssRNA, 2'-OMe all, full PS) [DKLS687192 (SEQ 28)]
0.76 normalized Rmax

Please report the measured binding signal for GAGGCAGCAGUACGACGG (ssRNA, 2'-OMe all, full PS) [LSA_ATG 5' truncation 18 nt]
1.06 normalized Rmax
